Source: patent EP4741383A1

assayed.target: CDC14A (Homo sapiens, UniProt Q9UNH5)
Construct: made in house; host or cells: E. coli
Sequence (Q9UNH5 whole entry, species assumed): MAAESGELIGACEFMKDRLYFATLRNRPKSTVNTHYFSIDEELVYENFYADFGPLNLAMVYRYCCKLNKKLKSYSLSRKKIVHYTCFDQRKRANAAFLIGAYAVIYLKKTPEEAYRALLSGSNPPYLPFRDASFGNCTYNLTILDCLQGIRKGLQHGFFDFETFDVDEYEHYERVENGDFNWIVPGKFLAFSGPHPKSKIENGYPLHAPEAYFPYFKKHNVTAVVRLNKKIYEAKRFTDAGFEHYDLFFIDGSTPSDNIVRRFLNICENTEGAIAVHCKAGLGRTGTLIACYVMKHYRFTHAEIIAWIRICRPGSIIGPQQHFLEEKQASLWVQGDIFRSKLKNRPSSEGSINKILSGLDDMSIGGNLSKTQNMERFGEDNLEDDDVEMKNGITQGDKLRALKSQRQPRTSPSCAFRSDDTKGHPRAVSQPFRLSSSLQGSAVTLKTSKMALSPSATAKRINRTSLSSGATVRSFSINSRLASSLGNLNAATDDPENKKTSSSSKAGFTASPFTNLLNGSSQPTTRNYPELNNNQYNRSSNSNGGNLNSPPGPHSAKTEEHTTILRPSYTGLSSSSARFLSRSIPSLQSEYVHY
test.name: Tyrosine phosphatase selectivity (pNPP substrate), CDC14A
Type: biochemical
condition.parameters: selectivity ratio CDC14A over SHP2
Experimental: This experiment evaluated the selectivity of the disclosed compounds against tyrosine phosphatases, including SHP1, HePTP, Laforin, LMWPTP, LYP, PTP1B, PRL2, SSU72, VHR, FAP1, STEP, CDC14A, CD45, MEG2, and PP5, all expressed and purified from E. coli. Phosphatase activity was measured using p-nitrophenyl phosphate (pNPP) (Fisher Scientific) as the substrate in 50 mM 3,3-dimethylglutaric acid buffer (pH 7.0, containing 1 mM EDTA), with ionic strength adjusted to 0.15 M with NaCl. […]
measure.name: IC50PTP/IC50SHP2 CDC14A

molecule	IC50PTP/IC50SHP2 CDC14A
O=C(Nc1ccc(-c2ccsc2)cc1)C(=O)Nc1ccc(-c2oc3cc(F)c(-c4nnn[nH]4)cc3c2C2CCC2)cc1 [Example 130]	2000
O=C(Nc1ccc(-c2ccsc2)cc1)C(=O)Nc1ccc(-c2cc3cc(F)c(-c4nnn[nH]4)cc3n2C2CCC2)cc1 [Example 4]	1724.1
O=C(Nc1ccc(-c2ccsc2)cc1)C(=O)Nc1ccc(-c2cc3cc(F)c(-c4nnn[nH]4)nc3n2C2CCC2)cc1 [Example 132]	1851.9

(A) O=C(Nc1ccc(-c2ccsc2)cc1)C(=O)Nc1ccc(-c2cc3cnc(-c4nnn[nH]4)nc3n2C2CCC2)cc1 [Example 131]
(B) CC1(n2c(-c3ccc(NC(=O)C(=O)Nc4ccc(N5CCC6(CCOC6)CC5)cc4)cc3)cc3cc(F)c(-c4nnn[nH]4)cc32)CCC1 [Example 68]
(C) O=C(Nc1ccc(-c2cc3cc(F)c(-c4nnn[nH]4)cc3n2C2CCC2)cc1)C(=O)Nc1ccc(N2CCC3(CCOC3)CC2)cc1 [Example 67]
Query block: Task for the reader: rank each entry by its IC50PTP/IC50SHP2 CDC14A, from the minimum upward. Put the labels in the requested order and write them down.
Result block: B, A, C
(B: 520.8, A: 1923.1, C: 2941)
